Measured values drawn from paper PMC10397247 for this set.

- systemTested: T1, P6-AA-1HAA-K
- T1 chain: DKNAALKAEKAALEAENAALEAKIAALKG
- protocol: two-hybrid library CCmax;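 also: natural log of median RNA to DNA barcode read ratio; higher means stronger binding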
- details: mean of both orientations
propertyMeasured: interaction score

Consider the following illustrative entries.
binder="DENAALEAKVAALKAKNAALKAEIAALEG [P5-AA-1HAA-V]" propertymeasured="interaction score" valuereported=2.25
binder="DENAALEAKKAALKAKNAALKAEIAALEG [P5-AA-1HAA-K]" propertymeasured="interaction score" valuereported=-0.653
binder="DENAALEAKLAALKAKNAALKAEIAALEG [P5-AA-1HAA-L]" propertymeasured="interaction score" valuereported=1.78

P. DENAALEAKTAALKAKNAALKAEIAALEG [P5-AA-1HAA-T]
Q. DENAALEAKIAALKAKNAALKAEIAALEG [4H1401-AA]
R. DENAALEAKRAALKAKNAALKAEIAALEG [P5-AA-1HAA-R]
S. DENAALEAKAAALKAKNAALKAEIAALEG [P5-AA-1HAA-A]
Exam item: list the entries in increasing order of interaction score. Answer format: the labels, ordered as requested.
R, S, P, Q
(R: -0.713, S: -0.453, P: 0.498, Q: 2.04)
